# SUBJECT_OF_TEST: Cellular tumor antigen p53 (Homo sapiens)
# ASSAY_REMARKS: Primary qHTS for small molecule compounds that upregulate eGFP-tagged delta133p53alpha (in N-terminal) cells. (AID 2060322);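 further: cells pre-induced with doxycycline then dosed without doxycycline; 0% = DMSO vehicle and 100% = reference activator; nearly all actives have a fitted effect of over 75% in size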
# EXPERIMENTAL_CONDITIONS: NCI-H358 eGFP-delta133p53alpha fluorescence, 24 h; hits give high values
# Text: Assay Development and Screening Technology National Center for Advancing Translational Sciences (NCATS), National Institute of Health (NIH), Rockville, Maryland Cellular senescence (CS) is one of the hallmarks of aging and age-related diseases. […] Here we report the development and validation of a cell-based quantitative high throughput screening (qHTS) assay in 1,536-well format. […]
Inconclusive results are not listed.
READOUT_TYPE: activation (%)
Give the number; % is assumed, so skip it.

# return recorded activation for entry CC1=C2C(=O)C=C(CO)C2C2OC(=O)C(CS(=O)(=O)O)C2C(OC(=O)Cc2ccc(O)cc2)C1 (stereo not drawn)
-22.1

# return recorded activation for entry "COc1cc(C(=O)NCc2ccc(OCCN(C)C)cc2)cc(OC)c1OC"
1.67

# return recorded activation for entry CC1CCc2cc(F)cc3c(=O)c(C(=O)O)cn1c23 (stereo not drawn)
23.2

# return recorded activation for entry CC(=O)OC1CC(C)(C(=O)O)CC2C3=CC(=O)C4C5(C)CCC(OC6OC(C(=O)O)C(O)C(O)C6OC6OC(C(=O)O)C(O)C(O)C6O)C(C)(C)C5CCC4(C)C3(C)CCC12C (stereo not drawn)
-4.46

# return recorded activation for entry COc1cc(C2Oc3c(OC)cc(/C=C/C(=O)OC4CC(O)(C(=O)O)CC(O)C4O)cc3C2CO)ccc1O (stereo not drawn)
-32.8

# return recorded activation for entry COC1C(O)C(OC2CCC3(C)C(CCC45CCC6C7(COC(=O)C7)OC4(O)C6(C)CCC35)C2)OC(C)C1OC1OC(CO)C(OC2OC(CO)C(O)C(O)C2O)C(O)C1O (stereo not drawn)
1.53

# return recorded activation for entry "CN1CCC(c2c[nH]c3ccc(NC(=O)c4ccc(F)cc4)cc23)CC1"
-11

# return recorded activation for entry COc1ccc(CC2NCCc3c2[nH]c2ccc(C)cc32)cc1OC (stereo not drawn)
5.25

----------
# SUBJECT_OF_TEST: Cellular tumor antigen p53 (Homo sapiens) (UniProt P04637)
# Sequence (P04637 whole entry, looked up): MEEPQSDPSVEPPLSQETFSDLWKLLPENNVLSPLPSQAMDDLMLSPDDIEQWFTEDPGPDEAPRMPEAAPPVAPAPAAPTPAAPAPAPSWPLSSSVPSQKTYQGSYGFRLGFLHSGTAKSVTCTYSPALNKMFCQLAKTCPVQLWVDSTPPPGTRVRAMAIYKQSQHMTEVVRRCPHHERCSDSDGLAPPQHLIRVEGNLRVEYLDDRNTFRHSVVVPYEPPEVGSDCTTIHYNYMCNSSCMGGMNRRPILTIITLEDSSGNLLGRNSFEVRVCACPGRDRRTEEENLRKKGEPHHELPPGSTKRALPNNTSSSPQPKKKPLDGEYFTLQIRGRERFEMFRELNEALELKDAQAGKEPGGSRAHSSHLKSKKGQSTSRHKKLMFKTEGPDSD
# ASSAY_REMARKS: Primary qHTS for small molecule compounds that upregulate eGFP-tagged delta133p53alpha (in N-terminal) cells. (AID 2060322);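 further: cells pre-induced with doxycycline then dosed without doxycycline; 0% = DMSO vehicle and 100% = reference activator; nearly all actives have a fitted effect of over 75% in size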
# EXPERIMENTAL_CONDITIONS: NCI-H358 eGFP-delta133p53alpha fluorescence, 24 h; hits give high values
Results filed as inconclusive are left out.
Answer each item with its documented activation.
Give the number; % is assumed, so skip it.

# return recorded activation for entry "Cc1nc2ccc(C(=O)N3CCC4(CC3)CC(=O)c3c(cnn3C(C)C)C4)cc2[nH]1"
23

# return recorded activation for entry N#CC1C(=O)N=C(c2cc(Cl)ccc2O)C=C1c1cc(OCc2ccccc2)cc(OCc2ccccc2)c1 (stereo not given)
-17.7

# return recorded activation for entry "O=C(CCc1ccncc1)NNC(=O)N1Cc2ccccc2Oc2ccc(Cl)cc21"
-9.58

# return recorded activation for entry "COc1ccc(CN(CCN(C)C)c2ncccn2)cc1"
5.08

# return recorded activation for entry CC12CC34C=CC(=O)C(C)(CCC(=O)O)C3C(CC1C4)O2 (stereo not given)
23.7

----------
# ASSAY_REMARKS: BET inhibitor-based combinations targeting novel dependencies in MECOM-rearranged (r) AML: SET-2 cell line (AID 2202231);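 further: plate controls were DMSO treated cells for no effect and wells without cells for full effect; nearly all actives have a fitted effect of over 35% in size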
# EXPERIMENTAL_CONDITIONS: SET-2 AML cells viability, CellTiter-Glo luminescence, 48 h; hits give low values, concentration not given here
Inconclusive results are not listed. Active and inactive are the calls of the source. Calls follow the shape of the dose curve; as a rule, active = well fitted inhibition curve with a large enough effect; inconclusive = small, poorly fitted or top-dose-only effect; inactive = no such curve, though single readings can be large or run the other way.
READOUT_TYPE: viability

# return recorded viability for entry "Cc1ccc(N(CC2=NCCN2)c2cccc(O)c2)cc1"
97.5% (inactive)

# return recorded viability for entry CN(CCOc1ccc(CC2SC(=O)NC2=O)cc1)c1ccccn1 (centres undefined)
102% (inactive)

# return recorded viability for entry "CCCn1c(=O)c2[nH]c(C34CC5CC3C[C@@H](C5)C4)nc2n(CCC)c1=O"
109% (inactive)

# return recorded viability for entry "CC(C)(C)OC(=O)N[C@H]1CCCCCC=C[C@@H]2C[C@@]2(C(=O)NS(=O)(=O)C2CC2)NC(=O)[C@@H]2C[C@@H](OC(=O)N3Cc4cccc(F)c4C3)CN2C1=O"
102% (inactive)

# return recorded viability for entry "Clc1ccc(Nc2nnc(Cc3ccncc3)c3ccccc23)cc1"
91.3% (inactive)

# return recorded viability for entry "CC[C@H](C=C[C@@H](C)[C@H]1CC[C@H]2[C@@H]3CC=C4C[C@@H](O)CC[C@]4(C)[C@@H]3CC[C@]12C)C(C)C"
107% (inactive)

# return recorded viability for entry "CC(C)(C)C(=O)CN1C(=O)[C@H](NC(=O)Nc2cccc(C(=O)O)c2)CN(C2CCCCC2)c2ccccc21"
110% (inactive)

# return recorded viability for entry CC(C(=O)O)c1cccc(C(=O)c2ccccc2)c1 (centres undefined)
117% (inactive)

# return recorded viability for entry "CC(C)(C)C(=O)Oc1ccc2c(c1)nc(NC(=O)c1cccc([N+](=O)[O-])c1)n2CCCO"
111% (inactive)

----------
# SUBJECT_OF_TEST: Aldehyde dehydrogenase, mitochondrial (Homo sapiens) (UniProt P05091)
# ASSAY_REMARKS: qHTS for Inhibitors of the Aldehyde Dehydrogenase Family (ALDH2) Primary screen (AID 2061308);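 further: plate controls were vehicle for no effect and reference inhibitor for full effect; nearly all actives have a fitted effect of over 55% in size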
# EXPERIMENTAL_CONDITIONS: ALDH2 enzyme inhibition qHTS, 1536-well; series mostly up to 56 µM
Results filed as inconclusive are left out. Calls of active or inactive are those of the source. Calls follow the shape of the dose curve; as a rule, active = well fitted inhibition curve with a large enough effect; inconclusive = small, poorly fitted or top-dose-only effect; inactive = flat fitted curve, though single readings scatter.
READOUT_TYPE: activity change, negative = inhibition

Sample answers from the record:
>  <COMPOUND>
CC(=O)c1ccc(N2CCN(C(=O)c3ccc4c(c3)CC(=O)N4)CC2)cc1

>  <activity change, negative = inhibition>
inactive

$$$$
>  <COMPOUND>
CCNC(=O)c1noc(-c2cc(Cl)c(O)cc2O)c1-c1ccc(OC)cc1

>  <activity change, negative = inhibition>
inactive

$$$$
>  <COMPOUND>
CNc1cc(OC)c(C(=O)N[C@@H]2CCN(Cc3ccccc3)[C@@H]2C)cc1Cl

>  <activity change, negative = inhibition>
inactive

$$$$
>  <COMPOUND>
O=C(NCc1ccc(OC(F)(F)F)cc1)C1c2c(F)cccc2C(=O)N1CCc1ccccn1 (stereo not given)

>  <activity change, negative = inhibition>
inactive

$$$$

# return recorded activity change, negative = inhibition for entry "O=C(c1cc(Cc2n[nH]c(=O)c3ccccc23)ccc1F)N1CCCNCC1"
inactive

# return recorded activity change, negative = inhibition for entry "O=C(Nc1ccc2ccccc2c1)Nc1nnc(-c2cccnc2)s1"
inactive

# return recorded activity change, negative = inhibition for entry CC1(CO)CC2C(O)C(=O)C3(CO)CC3(C)C2C1 (stereo not given)
inactive

# return recorded activity change, negative = inhibition for entry COc1cc(/C=C/C(=O)OCC2OC(OC3(CO)OC(CO)C(O)C3O)C(O)C(O)C2O)ccc1O (stereo not given)
inactive

# return recorded activity change, negative = inhibition for entry OC[C@H]1O[C@@H](OC(CCCCc2ccc(O)cc2)CCc2ccc(O)cc2)[C@H](O)[C@@H](O)[C@@H]1O (stereo not given in full)
inactive

# return recorded activity change, negative = inhibition for entry "O=C(NCCN1CCC(n2c(=O)[nH]c3ccccc32)CC1)c1cc2cc(F)ccc2[nH]1"
inactive

----------
Answer each item with its documented activation.
# SUBJECT_OF_TEST: Cellular tumor antigen p53 (Homo sapiens) (UniProt P04637)
# ASSAY_REMARKS: Primary qHTS for small molecule compounds that upregulate eGFP-tagged delta133p53alpha (in N-terminal) cells. (AID 2060322);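 further: cells pre-induced with doxycycline then dosed without doxycycline; 0% = DMSO vehicle and 100% = reference activator; nearly all actives have a fitted effect of over 75% in size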
# EXPERIMENTAL_CONDITIONS: NCI-H358 eGFP-delta133p53alpha fluorescence, 24 h; hits give high values
Inconclusive results are not listed.
Give the number; % is assumed, so skip it.

# return recorded activation for entry CC(C)c1ccc2c(c1)C(O)CC1C(C)(CO)CCCC21C (configuration not stated)
-12.5

# return recorded activation for entry "COC(=O)C1=CO[C@@H](O[C@@H]2O[C@H](CO)[C@@H](O)[C@H](O)[C@H]2O)[C@H]2[C@@H]1[C@H](O)C[C@]2(C)O"
3.57

# return recorded activation for entry "C/C(=C(\CCOP(=O)(O)O)SC(=O)c1ccccc1)N(C=O)Cc1cnc(C)nc1N"
-11.7

# return recorded activation for entry "COc1cc(C(=O)NS(=O)(=O)c2ccccc2C)ccc1Cc1cn(C)c2ccc(NC(=O)OC3CCCC3)cc12"
105

# return recorded activation for entry N=C(N)c1ccc2nc(-c3cc(CC(=O)NC(CC(=O)O)C(=O)O)cc(-c4cc(S(N)(=O)=O)ccc4O)c3O)[nH]c2c1 (configuration not stated)
-8.59

# return recorded activation for entry C/C(=C\CCC(C)(O)c1ccc(C)cc1)C(=O)O (configuration not stated)
-12.2

# return recorded activation for entry CC(C)=CC[C@H]1O[C@]2(O)C([C@H]3CCC4[C@@]5(C)CC[C@H](O[C@@H]6O[C@H](CO)[C@H](O)[C@H](O[C@@H]7O[C@H](CO)[C@@H](O)[C@H](O)[C@H]7O)[C@H]6O[C@@H]6O[C@@H](C)[C@H](O)[C@@H](O)[C@H]6O)C(C)(C)C5CC[C@@]4(C)[C@]3(C)[C@H]2O)[C@@]1(C)O (some centres not stated)
17.6
